assay: self-splicing fitness, log relative to wild type (ln ratio); higher = more splicing; Tetrahymena group I intron in knt gene, E. coli kanamycin selection, DiMSum; sequences stand for … in CUCUCU…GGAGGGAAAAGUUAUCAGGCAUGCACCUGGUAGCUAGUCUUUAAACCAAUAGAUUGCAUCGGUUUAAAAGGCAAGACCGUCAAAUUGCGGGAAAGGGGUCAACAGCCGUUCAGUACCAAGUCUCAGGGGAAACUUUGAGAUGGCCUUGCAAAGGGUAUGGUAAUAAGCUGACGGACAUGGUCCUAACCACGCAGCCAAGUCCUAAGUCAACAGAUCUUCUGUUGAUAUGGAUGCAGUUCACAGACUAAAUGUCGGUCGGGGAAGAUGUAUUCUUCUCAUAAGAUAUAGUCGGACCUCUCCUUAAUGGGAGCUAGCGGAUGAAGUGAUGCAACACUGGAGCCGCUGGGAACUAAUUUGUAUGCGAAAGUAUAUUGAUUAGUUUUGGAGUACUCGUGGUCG; settings: 30 °C;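 further: selection with 25 µg/mL kanamycin versus none on LB agar overnight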
attribute_measured: self-splicing fitness (ln)
Could you respond with only the numeric value?

Worked examples follow.
>>> quantitative_readout("CAUAAGCAAUAUUACGUUCC")
-3.94
>>> quantitative_readout("CCAAAGCAAUAUUACGCGCU")
-3.57
>>> quantitative_readout("AGUUAGCAAUAUUACGAGAG")
-3.75

Given `AUGUAGCAAUAUUACGUACA` , state its recorded self-splicing fitness (ln).
-0.425

Given `GGGUAGCAAUAUUACGUUCG` , state its recorded self-splicing fitness (ln).
-0.742

Given `ACUUAGCAAUAUUACGGAUG` , state its recorded self-splicing fitness (ln).
-1.73

Given `UGUAAGCAAUAUUACGCCGU` , state its recorded self-splicing fitness (ln).
-2.48
